Origin of values: patent US11591604B2

system: NanoLuc; assay: NanoLuc luciferase reporter expression from constitutive promoters and RBSs integrated with pNBU2; type: cell-based, B. thetaiotaomicron; conditions: RBS combined with promoter PBT1311, NanoLuc reporter, three biological replicates
// false (0) strictly below 0.008 RLU/CFU in Average Luminescence (RLU/CFU); true (1) otherwise

Problem: Does C15: RBS, SEQ ID NO: 41 (DNA TCCCGCATTTTAAAATAAAATAAATTATTTCTTTAATTAAACGAAT; chemistry not fully specified) have a reported Average Luminescence (RLU/CFU) of at least 0.008 RLU/CFU?
Solution: true (1)

Problem: Does C38: RBS, SEQ ID NO: 108 (DNA TCCCGCATTTTAAAATAAAATAAATTATTCTTTTATTTAAACGAAT; chemistry not fully specified) have a reported Average Luminescence (RLU/CFU) of at least 0.008 RLU/CFU?
Solution: false (0)

Problem: Does C9: RBS, SEQ ID NO: 23 (DNA TCCCGCATTTTAAAATAAAATAAATTATTGCTTTAATTAAACGAAT; chemistry not fully specified) have a reported Average Luminescence (RLU/CFU) of at least 0.008 RLU/CFU?
Solution: true (1)

Problem: Does C18: RBS, SEQ ID NO: 47 (DNA TCCCGCATTTTAAAATAAAATAAATTATTGTTTTACTTAAACGAAT; chemistry not fully specified) have a reported Average Luminescence (RLU/CFU) of at least 0.008 RLU/CFU?
Solution: true (1)

Problem: Does B23: RBS, SEQ ID NO: 61 (DNA TCCCGCATTTTAAAATAAAATAAATAATCTATTTAATTAAACGAAT; chemistry not fully specified) have a reported Average Luminescence (RLU/CFU) of at least 0.008 RLU/CFU?
Solution: true (1)

Problem: Does rpiL*: parent ribosomal protein RBS, SEQ ID NO: 39, 172, 174 (DNA TCCCGCATTTTAAAATAAAATAAATTATTTATTTAATTAAACGAAT; chemistry not fully specified) have a reported Average Luminescence (RLU/CFU) of at least 0.008 RLU/CFU?
Solution: true (1)

Problem: Does A20: RBS, SEQ ID NO: 71 (DNA TCCCGCATTTTAAAATAAAATAAATTATTTATTTATTTAAACGAAT; chemistry not fully specified) have a reported Average Luminescence (RLU/CFU) of at least 0.008 RLU/CFU?
Solution: true (1)

Problem: Does B37: RBS, SEQ ID NO: 121 (DNA TCCCGCATTTTAAAATAAAATAAATCATATATTTAATTAAACGAAT; chemistry not fully specified) have a reported Average Luminescence (RLU/CFU) of at least 0.008 RLU/CFU?
Solution: false (0)

Problem: Does C33: RBS, SEQ ID NO: 93 (DNA TCCCGCATTTTAAAATAAAATAAATTATTAGTTTACTTAAACGAAT; chemistry not fully specified) have a reported Average Luminescence (RLU/CFU) of at least 0.008 RLU/CFU?
Solution: false (0)

Problem: Does C39: RBS, SEQ ID NO: 109 (DNA TCCCGCATTTTAAAATAAAATAAATTATTCCTTTATTTAAACGAAT; chemistry not fully specified) have a reported Average Luminescence (RLU/CFU) of at least 0.008 RLU/CFU?
Solution: false (0)

Problem: Does B24: RBS, SEQ ID NO: 62 (DNA TCCCGCATTTTAAAATAAAATAAATCATTTATTTAATTAAACGAAT; chemistry not fully specified) have a reported Average Luminescence (RLU/CFU) of at least 0.008 RLU/CFU?
Solution: true (1)

Problem: Does B5: RBS, SEQ ID NO: 5 (DNA TCCCGCATTTTAAAATAAAATAAATTATATAATTAATTAAACGAAT; chemistry not fully specified) have a reported Average Luminescence (RLU/CFU) of at least 0.008 RLU/CFU?
Solution: true (1)

Problem: Does B4: RBS, SEQ ID NO: 4 (DNA TCCCGCATTTTAAAATAAAATAAATAATTTAATTAATTAAACGAAT; chemistry not fully specified) have a reported Average Luminescence (RLU/CFU) of at least 0.008 RLU/CFU?
Solution: true (1)

Problem: Does C56: RBS, SEQ ID NO: 143 (DNA TCCCGCATTTTAAAATAAAATAAATTATTCGTTTAGTTAAACGAAT; chemistry not fully specified) have a reported Average Luminescence (RLU/CFU) of at least 0.008 RLU/CFU?
Solution: false (0)

Problem: Does A23: RBS, SEQ ID NO: 79 (DNA TCCCGCATTTTAAAATAAAATAAATTATTAGTTTACTTAAACGAAT; chemistry not fully specified) have a reported Average Luminescence (RLU/CFU) of at least 0.008 RLU/CFU?
Solution: true (1)

Problem: Does A44: RBS, SEQ ID NO: 135 (DNA TCCCGCATTTTAAAATAAAATAAATTATTCGTTTATTTAAACGAAT; chemistry not fully specified) have a reported Average Luminescence (RLU/CFU) of at least 0.008 RLU/CFU?
Solution: false (0)

Problem: Does B14: RBS, SEQ ID NO: 26 (DNA TCCCGCATTTTAAAATAAAATAAATTATCTATTTAATTAAACGAAT; chemistry not fully specified) have a reported Average Luminescence (RLU/CFU) of at least 0.008 RLU/CFU?
Solution: true (1)

Problem: Does C35: RBS, SEQ ID NO: 99 (DNA TCCCGCATTTTAAAATAAAATAAATTATTCCTTTAATTAAACGAAT; chemistry not fully specified) have a reported Average Luminescence (RLU/CFU) of at least 0.008 RLU/CFU?
Solution: false (0)

Problem: Does B21: RBS, SEQ ID NO: 53 (DNA TCCCGCATTTTAAAATAAAATAAATGATATATTTAATTAAACGAAT; chemistry not fully specified) have a reported Average Luminescence (RLU/CFU) of at least 0.008 RLU/CFU?
Solution: true (1)

Problem: Does C49: RBS, SEQ ID NO: 129 (DNA TCCCGCATTTTAAAATAAAATAAATTATTGTTTTATTTAAACGAAT; chemistry not fully specified) have a reported Average Luminescence (RLU/CFU) of at least 0.008 RLU/CFU?
Solution: false (0)

Problem: Does A33: RBS, SEQ ID NO: 106 (DNA TCCCGCATTTTAAAATAAAATAAATTATTTCTTTAGTTAAACGAAT; chemistry not fully specified) have a reported Average Luminescence (RLU/CFU) of at least 0.008 RLU/CFU?
Solution: false (0)
